system: ncRNAs (SEQ ID NO 28-89); test: ncRNA arrays of melanocytes, keratinocytes, normal skin, melanoma cell lines and patient samples; design: species or system human; details: melanoma patient 19 sample compared to normal skin
endpointLabel: ncRNA array expression, patient 19
Numbers only.

Reference set (6 entries):
substance: SEQ ID NO 53 (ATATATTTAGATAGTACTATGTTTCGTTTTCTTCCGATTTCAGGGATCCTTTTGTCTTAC; listed as DNA, chemistry not given here; listed as Homo sapiens)
ncRNA array expression, patient 19: −2.319

substance: SEQ ID NO 45 (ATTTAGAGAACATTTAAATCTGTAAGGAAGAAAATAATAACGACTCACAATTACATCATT; listed as DNA, chemistry not given here; listed as Homo sapiens)
ncRNA array expression, patient 19: −0.8583

substance: SEQ ID NO 65 (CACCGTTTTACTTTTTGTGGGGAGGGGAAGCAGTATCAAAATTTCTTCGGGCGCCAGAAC; listed as DNA, chemistry not given here; listed as Homo sapiens)
ncRNA array expression, patient 19: −0.6567

substance: SEQ ID NO 28 (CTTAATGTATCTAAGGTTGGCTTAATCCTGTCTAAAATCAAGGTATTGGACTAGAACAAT; DNA, backbone and methylation of C not given here; listed as Homo sapiens)
ncRNA array expression, patient 19: 0.5486

substance: SEQ ID NO 50 (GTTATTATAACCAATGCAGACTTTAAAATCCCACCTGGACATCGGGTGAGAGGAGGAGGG; listed as DNA, chemistry not given here; listed as Homo sapiens)
ncRNA array expression, patient 19: −0.5347

substance: SEQ ID NO 37 (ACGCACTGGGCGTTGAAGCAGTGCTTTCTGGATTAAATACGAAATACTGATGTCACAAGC; DNA, backbone and methylation of C not given here; listed as Homo sapiens)
ncRNA array expression, patient 19: 4.51

Each of the following entries comes with a recorded value; kindly state ncRNA array expression, patient 19 for each.
1. SEQ ID NO 78 (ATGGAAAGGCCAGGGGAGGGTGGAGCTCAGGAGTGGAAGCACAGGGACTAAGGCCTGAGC; listed as DNA, chemistry not given here; listed as Homo sapiens)
2. SEQ ID NO 77 (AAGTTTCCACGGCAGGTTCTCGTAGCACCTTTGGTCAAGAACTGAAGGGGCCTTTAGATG; listed as DNA, chemistry not given here; listed as Homo sapiens)
3. SEQ ID NO 57 (TTGTTGTTTTGGGAGATACCCTGTTTAGCCTGAAAGGATTGAGATACTGTAATTGCTATG; listed as DNA, chemistry not given here; listed as Homo sapiens)

Result:
−2.807
−0.2581
0.2628

###

test system: ncRNAs (SEQ ID NO 28-89); experiment: ncRNA arrays of melanocytes, keratinocytes, normal skin, melanoma cell lines and patient samples; set-up: species or system human; conditions: melanoma patient 5 sample compared to normal skin
Would you mind telling me the reported ncRNA array expression, patient 5 of each entry?
Give bare numbers.

Consider the worked cases shown below.
substance: SEQ ID NO 89 (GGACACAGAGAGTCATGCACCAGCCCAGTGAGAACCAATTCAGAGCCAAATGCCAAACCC; listed as DNA, chemistry not given here; listed as Homo sapiens)
ncRNA array expression, patient 5: −1.049
--
substance: SEQ ID NO 45 (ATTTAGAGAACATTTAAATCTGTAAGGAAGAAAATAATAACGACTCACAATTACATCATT; listed as DNA, chemistry not given here; listed as Homo sapiens)
ncRNA array expression, patient 5: −1.519

Here's the next entry for you.
Ask: Item: SEQ ID NO 40 (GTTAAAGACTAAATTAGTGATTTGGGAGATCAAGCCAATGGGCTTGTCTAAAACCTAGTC; listed as DNA, chemistry not given here; listed as Homo sapiens) Test system: ncRNAs (SEQ ID NO 28-89) Read-out: ncRNA array expression, patient 5 Value: ?
Result: 0.52
